Assay: Binding affinity to 18S RNA by surface plasmon resonance
Answer each item with its documented pKd.
Answers are plain numbers, as −log10 of the molar value.

Illustrative cases are given below, each with its answer.
Cc1cn([C@H]2C[C@H](O)[C@@H](COP(=O)(O)O[C@H]3C[C@H](n4ccc(=O)[nH]c4=O)O[C@@H]3C(=O)NCCN[C@H]3[C@@H](O)[C@H](N)C[C@H](N)[C@H]3O[C@H]3O[C@H](CN)[C@@H](O)[C@H](O)[C@H]3N)O2)c(=O)[nH]c1=O; 2.92
Cc1cn([C@H]2C[C@H](OP(=O)(O)OC[C@H]3O[C@@H](n4cc(C)c(=O)[nH]c4=O)C[C@@H]3O)[C@@H](C(=O)NCCCCCCN[C@H]3[C@@H](O)[C@H](N)C[C@H](N)[C@H]3O[C@H]3O[C@H](CN)[C@@H](O)[C@H](O)[C@H]3N)O2)c(=O)[nH]c1=O; 3.58
NCCN(CC(=O)NCCN[C@H]1[C@@H](O)[C@H](N)C[C@H](N)[C@H]1O[C@H]1O[C@H](CN)[C@@H](O)[C@H](O)[C@H]1N)C(=O)Cn1cnc2c(N)ncnc21; 4.92
NC[C@H]1O[C@H](O[C@H]2[C@@H](NCCNC(=O)[C@H]3O[C@@H](n4ccc(=O)[nH]c4=O)C[C@@H]3OP(=O)(O)OC[C@H]3O[C@@H](n4ccc(=O)[nH]c4=O)C[C@@H]3O)[C@@H](O)[C@H](N)C[C@@H]2N)[C@H](N)[C@@H](O)[C@@H]1O; 3.39
NC[C@H]1O[C@H](O[C@H]2[C@H](O)[C@@H](O)[C@H](N)C[C@@H]2N)[C@H](N)[C@@H](O)[C@@H]1O; 4.59
Cc1cn(CC(=O)N(CCNC(=O)CN(CCN)C(=O)Cn2ccc(=O)[nH]c2=O)CC(=O)NCCN[C@H]2[C@@H](O)[C@H](N)C[C@H](N)[C@H]2O[C@H]2O[C@H](CN)[C@@H](O)[C@H](O)[C@H]2N)c(=O)[nH]c1=O; 4.70
Cc1cn([C@H]2C[C@H](OP(=O)(O)OC[C@H]3O[C@@H](n4ccc(=O)[nH]c4=O)C[C@@H]3O)[C@@H](C(=O)NCCN[C@H]3[C@@H](O)[C@H](N)C[C@H](N)[C@H]3O[C@H]3O[C@H](CN)[C@@H](O)[C@H](O)[C@H]3N)O2)c(=O)[nH]c1=O; 3.32

Attention now shifts to the item below.
Q. Return value of pKd for input NCCN(CC(=O)NCCN(CC(=O)NCCN[C@H]1[C@@H](O)[C@H](N)C[C@H](N)[C@H]1O[C@H]1O[C@H](CN)[C@@H](O)[C@H](O)[C@H]1N)C(=O)Cn1ccc(=O)[nH]c1=O)C(=O)Cn1ccc(=O)[nH]c1=O , no commentary.
A. 4.46

----------
Answer each item with its documented Ratio.
Test: Ratio of Kd for 18S RNA to Kd for 16S RNA

Illustrative cases are given below, each with its answer.
NCCN(CC(=O)NCCN[C@H]1[C@@H](O)[C@H](N)C[C@H](N)[C@H]1O[C@H]1O[C@H](CN)[C@@H](O)[C@H](O)[C@H]1N)C(=O)Cn1ccc(=O)[nH]c1=O; 1.21
Cc1cn([C@H]2C[C@H](OP(=O)(O)OC[C@H]3O[C@@H](n4ccc(=O)[nH]c4=O)C[C@@H]3O)[C@@H](C(=O)NCCN[C@H]3[C@@H](O)[C@H](N)C[C@H](N)[C@H]3O[C@H]3O[C@H](CN)[C@@H](O)[C@H](O)[C@H]3N)O2)c(=O)[nH]c1=O; 2.11
NCCN(CC(=O)NCCN[C@H]1[C@@H](O)[C@H](N)C[C@H](N)[C@H]1O[C@H]1O[C@H](CN)[C@@H](O)[C@H](O)[C@H]1N)C(=O)Cn1cnc2c(N)ncnc21; 0.75

Attention now shifts to the item below.
Q. Return value of Ratio for input Cc1cn([C@H]2C[C@H](OP(=O)(O)OC[C@H]3O[C@@H](n4cc(C)c(=O)[nH]c4=O)C[C@@H]3O)[C@@H](C(=O)NCCN[C@H]3[C@@H](O)[C@H](N)C[C@H](N)[C@H]3O[C@H]3O[C@H](CN)[C@@H](O)[C@H](O)[C@H]3N)O2)c(=O)[nH]c1=O , no commentary.
A. 1.8

----------
Answer each item with its documented pKd.
Test: Binding affinity to trans-activation response RNA by surface plasmon resonance
Numbers only, as −log10 of the molar value.

Cc1cn([C@H]2C[C@H](OP(=O)(O)OC[C@H]3O[C@@H](n4ccc(=O)[nH]c4=O)C[C@@H]3O)[C@@H](C(=O)NCCN[C@H]3[C@@H](O)[C@H](N)C[C@H](N)[C@H]3O[C@H]3O[C@H](CN)[C@@H](O)[C@H](O)[C@H]3N)O2)c(=O)[nH]c1=O; 3.32
Cc1cn(CC(=O)N(CCN)CC(=O)NCCN(CC(=O)NCCN[C@H]2[C@@H](O)[C@H](N)C[C@H](N)[C@H]2O[C@H]2O[C@H](CN)[C@@H](O)[C@H](O)[C@H]2N)C(=O)Cn2ccc(=O)[nH]c2=O)c(=O)[nH]c1=O; 5.10

Q. Return value of pKd for input NCCN(CC(=O)NCCN[C@H]1[C@@H](O)[C@H](N)C[C@H](N)[C@H]1O[C@H]1O[C@H](CN)[C@@H](O)[C@H](O)[C@H]1N)C(=O)Cn1cnc2c(N)ncnc21 , no commentary.
A. 4.92

----------
Experiment: Binding affinity to trans-activation response RNA by surface plasmon resonance
Answer each item with its documented pKd.
Answers are plain numbers, as −log10 of the molar value.

Illustrative cases are given below, each with its answer.
Cc1cn([C@H]2C[C@H](OP(=O)(O)OC[C@H]3O[C@@H](n4cc(C)c(=O)[nH]c4=O)C[C@@H]3O)[C@@H](C(=O)NCCCN[C@H]3[C@@H](O)[C@H](N)C[C@H](N)[C@H]3O[C@H]3O[C@H](CN)[C@@H](O)[C@H](O)[C@H]3N)O2)c(=O)[nH]c1=O; 3.27
Cc1cn(CC(=O)N(CCN)CC(=O)NCCN[C@H]2[C@@H](O)[C@H](N)C[C@H](N)[C@H]2O[C@H]2O[C@H](CN)[C@@H](O)[C@H](O)[C@H]2N)c(=O)[nH]c1=O; 5.00
Cc1cn([C@H]2C[C@H](OP(=O)(O)OC[C@H]3O[C@@H](n4cc(C)c(=O)[nH]c4=O)C[C@@H]3O)[C@@H](C(=O)NCCN[C@H]3[C@@H](O)[C@H](N)C[C@H](N)[C@H]3O[C@H]3O[C@H](CN)[C@@H](O)[C@H](O)[C@H]3N)O2)c(=O)[nH]c1=O; 3.20

Q. Return value of pKd for input NCCN(CC(=O)NCCN(CC(=O)NCCN[C@H]1[C@@H](O)[C@H](N)C[C@H](N)[C@H]1O[C@H]1O[C@H](CN)[C@@H](O)[C@H](O)[C@H]1N)C(=O)Cn1ccc(=O)[nH]c1=O)C(=O)Cn1ccc(=O)[nH]c1=O , no commentary.
A. 4.96

----------
Answer each item with its documented pKd.
Experiment: Binding affinity to 18S RNA by surface plasmon resonance
Answers are plain numbers, as −log10 of the molar value.

Cc1cn(CC(=O)N(CCN)CC(=O)NCCN(CC(=O)NCCN[C@H]2[C@@H](O)[C@H](N)C[C@H](N)[C@H]2O[C@H]2O[C@H](CN)[C@@H](O)[C@H](O)[C@H]2N)C(=O)Cn2ccc(=O)[nH]c2=O)c(=O)[nH]c1=O; 4.60
Cc1cn(CC(=O)N(CCN)CC(=O)NCCN(CC(=O)NCCN[C@H]2[C@@H](O)[C@H](N)C[C@H](N)[C@H]2O[C@H]2O[C@H](CN)[C@@H](O)[C@H](O)[C@H]2N)C(=O)Cn2cc(C)c(=O)[nH]c2=O)c(=O)[nH]c1=O; 5.00
NCCN(CC(=O)NCCN[C@H]1[C@@H](O)[C@H](N)C[C@H](N)[C@H]1O[C@H]1O[C@H](CN)[C@@H](O)[C@H](O)[C@H]1N)C(=O)Cn1ccc(=O)[nH]c1=O; 4.77

Attention now shifts to the item below.
Q. Return value of pKd for input Cc1cn([C@H]2C[C@H](OP(=O)(O)OC[C@H]3O[C@@H](n4cc(C)c(=O)[nH]c4=O)C[C@@H]3O)[C@@H](C(=O)NCCN[C@H]3[C@@H](O)[C@H](N)C[C@H](N)[C@H]3O[C@H]3O[C@H](CN)[C@@H](O)[C@H](O)[C@H]3N)O2)c(=O)[nH]c1=O , no commentary.
A. 3.26

----------
Answer each item with its documented Ratio.
Assay: Ratio of Kd for 18S RNA to Kd for 16S RNA
Numbers only.

Illustrative cases are given below, each with its answer.
Cc1cn([C@H]2C[C@H](O)[C@@H](COP(=O)(O)O[C@H]3C[C@H](n4ccc(=O)[nH]c4=O)O[C@@H]3C(=O)NCCN[C@H]3[C@@H](O)[C@H](N)C[C@H](N)[C@H]3O[C@H]3O[C@H](CN)[C@@H](O)[C@H](O)[C@H]3N)O2)c(=O)[nH]c1=O; 3.45
Cc1cn(CC(=O)N(CCN)CC(=O)NCCN[C@H]2[C@@H](O)[C@H](N)C[C@H](N)[C@H]2O[C@H]2O[C@H](CN)[C@@H](O)[C@H](O)[C@H]2N)c(=O)[nH]c1=O; 1.38
Cc1cn(CC(=O)N(CCN)CC(=O)NCCN(CC(=O)NCCN[C@H]2[C@@H](O)[C@H](N)C[C@H](N)[C@H]2O[C@H]2O[C@H](CN)[C@@H](O)[C@H](O)[C@H]2N)C(=O)Cn2ccc(=O)[nH]c2=O)c(=O)[nH]c1=O; 2.08
Cc1cn(CC(=O)N(CCN)CC(=O)NCCN(CC(=O)NCCN[C@H]2[C@@H](O)[C@H](N)C[C@H](N)[C@H]2O[C@H]2O[C@H](CN)[C@@H](O)[C@H](O)[C@H]2N)C(=O)Cn2cc(C)c(=O)[nH]c2=O)c(=O)[nH]c1=O; 1.11

Can you give me Ratio for all of these, one by one?
1. NC[C@H]1O[C@H](O[C@H]2[C@H](O)[C@@H](O)[C@H](N)C[C@@H]2N)[C@H](N)[C@@H](O)[C@@H]1O
2. NC[C@H]1O[C@H](O[C@H]2[C@@H](NCCNC(=O)[C@H]3O[C@@H](n4ccc(=O)[nH]c4=O)C[C@@H]3OP(=O)(O)OC[C@H]3O[C@@H](n4ccc(=O)[nH]c4=O)C[C@@H]3O)[C@@H](O)[C@H](N)C[C@@H]2N)[C@H](N)[C@@H](O)[C@@H]1O
3. Cc1cn([C@H]2C[C@H](OP(=O)(O)OC[C@H]3O[C@@H](n4cc(C)c(=O)[nH]c4=O)C[C@@H]3O)[C@@H](C(=O)NCCCN[C@H]3[C@@H](O)[C@H](N)C[C@H](N)[C@H]3O[C@H]3O[C@H](CN)[C@@H](O)[C@H](O)[C@H]3N)O2)c(=O)[nH]c1=O
4. Cc1cn([C@H]2C[C@H](OP(=O)(O)OC[C@H]3O[C@@H](n4cc(C)c(=O)[nH]c4=O)C[C@@H]3O)[C@@H](C(=O)NCCCCCCN[C@H]3[C@@H](O)[C@H](N)C[C@H](N)[C@H]3O[C@H]3O[C@H](CN)[C@@H](O)[C@H](O)[C@H]3N)O2)c(=O)[nH]c1=O
5. Cc1cn(CC(=O)N(CCNC(=O)CN(CCN)C(=O)Cn2ccc(=O)[nH]c2=O)CC(=O)NCCN[C@H]2[C@@H](O)[C@H](N)C[C@H](N)[C@H]2O[C@H]2O[C@H](CN)[C@@H](O)[C@H](O)[C@H]2N)c(=O)[nH]c1=O
6. NCCN(CC(=O)NCCN(CC(=O)NCCN[C@H]1[C@@H](O)[C@H](N)C[C@H](N)[C@H]1O[C@H]1O[C@H](CN)[C@@H](O)[C@H](O)[C@H]1N)C(=O)Cn1ccc(=O)[nH]c1=O)C(=O)Cn1ccc(=O)[nH]c1=O

A.
2.36
2.24
1.76
1.28
1.81
2.06
